Test system: SW-620
MEASUREMENT_PROTOCOL: NCI tumour cell line growth inhibition, 48 h
The source made the active and inactive calls. Rule as the data show it: active = GI50 up to about 1.1 µM and inactive = higher.
A correct response names exactly one class from t for active, f for inactive

{"columns": ["COMPOUND", "SYSTEM", "CLASS_ASSIGNMENT"],
 "data": [
  ["COc1ccccc1NC(=O)CC(=O)n1nc(C)c(/N=N/c2ccccc2F)c1C", "SW-620", "f"],
  ["CCOC(=O)Oc1cc2c(c(OC)c1OC)-c1ccc(SC)c(=O)cc1C(NC(=O)C(F)(F)F)CC2 (centres undefined)", "SW-620", "t"],
  ["C[C@]12CCC(=O)C=C1CC[C@@H]1[C@@H]2[C@@H](O)C[C@@]2(C)[C@H]1CC[C@]2(O)C(=O)COC(=O)CCC1CCCC1 [HYDROCORTISONE CYPIONATE]", "SW-620", "f"],
  ["Clc1ccc(CSC2=NCCN2)cc1Cl", "SW-620", "f"],
  ["COC(=O)C1CC/C(=N/C2c3ccccc3-c3ccccc32)N1 (centres undefined)", "SW-620", "f"],
  ["CNS(=O)(=O)c1ccc2c(c1)/C(=C1/Nc3ccccc3C1=O)C(=O)N2", "SW-620", "f"],
  ["CC(NC(=O)C(CC(=O)OCc1ccccc1)NC(=O)OCc1ccccc1)c1ccccc1 (centres undefined)", "SW-620", "f"],
  ["COc1cc2c3cc1Oc1c(OC)c(OC)cc4c1C(Cc1ccc(O)c(c1)Oc1ccc(cc1)CC3N(C)CC2)N(C)CC4 (centres undefined)", "SW-620", "f"]
]}

Status in this test for `Cc1ccc(N)cc1.O=S(=O)(O)/C(=C\c1ccccc1)c1ccccc1` ?
f
